I'd be grateful if you could share measured melting point for these entries.

molecule | observed.measurement
O=C(C(=Cc1ccc([N+](=O)[O-])cc1)c1ccccc1)c1ccc(O)cc1 | 153 to 157 °C
CNC(=O)C(C#N)C(=O)C1CCC1 (centres undefined) | 81 to 83 °C
CC1c2ccccc2-c2ccccc2N1S(=O)(=O)c1ccc(O)cc1 (centres undefined) | 196 to 198 °C

Please give melting point for each item listed below.
1. CC(C)CC1(CC(=O)NO)CCN(Cc2ccccc2)C1=O (centres undefined)
2. CCOC1CN(Cc2cccc(OC)c2)Cc2cc(OC)c(O)cc21 (centres undefined)
3. CC(=O)c1ccc(Oc2ccc(-c3scc(-c4ccccc4Cl)c3CC(=O)N=C(N)N)cc2)cc1
4. Cc1ccc(-c2c(NS(=O)(=O)c3ccc(C(C)(C)C)cc3)ncnc2OCCOc2ncc(CCc3ccccc3)cn2)cc1

1. 119 to 120 °C
2. 134 to 135 °C
3. 117 to 118 °C
4. 158 to 160 °C

Please give melting point for each item listed below.
1. OC1CCc2c(Cl)cc(Cl)cc2C1 (centres undefined)
2. COc1cc(NC(=O)OCC2c3ccccc3-c3ccccc32)ccc1C=O

1: 84 to 86 °C; 2: 187 to 188 °C

---

I'd be grateful if you could share measured melting point for these entries.

For orientation, consider the following solved cases.
compound | readout.label | observed.measurement
COc1cc2[nH]c(=O)nc(C)c2c(OC)c1OC | melting point | 229 to 230 °C
Nc1ccc(C2=NN3CCCC3Cc3cc4c(cc32)OCO4)cc1 (stereo not drawn) | melting point | 153 to 155 °C

State its melting point for this compound: CC1(C)C=Cc2c(-c3[nH]c4cn[nH]c(=O)c4c3Cl)ccc(OC(F)F)c2O1
226 to 234 °C

---

readout.label: melting point

molecule | melting point
N#Cc1cccc(-n2ccc3ccccc32)c1 | 33 to 36 °C
CCCCCCC[C@H]1O[C@H]1C(=O)O | 53 to 55 °C
Nc1ccc(Nc2cc3c(cc2Nc2ccc(N)cc2)C(=O)NC3=O)cc1 | 154 to 157 °C
O=c1[nH]c2ncc(-c3ccc(-n4cccn4)cc3)nc2n1CC1CCOCC1 | 294 to 296 °C
O=C(O)COc1cc2c(=O)cc(C(=O)O)[nH]c2ccc1=O | > 270 °C
COCc1cc(N(C)C)ncn1 | 42 to 44 °C
Cc1cccc(C(=O)Nc2cccc(C(F)(F)F)c2)c1NCc1ccncc1 | 94 to 98 °C
CNC1=NN(c2cccc(Cl)c2)CC1C (stereo not given) | 75 to 76 °C
Cc1noc(NS(=O)(=O)c2ccccc2-c2ccc(-c3ncco3)cc2CN(CC(F)(F)F)C(=O)C(C)(C)C)c1C | 146 to 147 °C

# input for lookup
State its melting point for this molecule: CC(C)[C@H]1CC[C@H](C(=O)N[C@H](Cc2ccc(OCCN(C)c3ccccn3)cc2)C(=O)O)CC1
154 to 155 °C

---

I'd be grateful if you could share measured melting point for these entries.
Numbers only, in °C.

smiles.data | observed.measurement
CCOC(=O)c1cn(C2CC2)c2nc(SCC)ncc2c1=O | 138

# input for lookup
State its melting point for this molecule: CC(C(=O)NCC1CCC1)(c1ccccc1)c1ccccc1
79

---

readout.label: melting point

molecule | observed.measurement
Cc1cccc(-c2nc3ccccn3c2-c2ccnc(-c3ccc(C(=O)NC4CCOCC4)cc3)c2)n1 | 128 °C

Please give melting point for each item listed below.
1. CC1(C)C(=O)C(C(=O)c2ccc(Cl)cc2[N+](=O)[O-])C(=O)C(C)(C)C1=O
2. CCc1cc(C(=O)O)c(OC(C)=O)cc1C
3. O=C(O)/C=C/c1ccc(N2CCC(=O)CC2)cc1
4. CC1CCC(=NNc2ccccc2)c2ncc(C(=O)NN)c(=O)n21 (stereo not drawn)
5. Cc1c(C=CCN)[nH]c(=O)c2c1ccc1nc(Nc3c(Cl)cccc3Cl)n(C)c12
6. CCCSc1ncc(C=C(Cc2cccs2)C(=O)O)n1Cc1ccccc1Cl

1. 76 to 82 °C
2. 132 to 134 °C
3. 215 °C
4. 205 to 207 °C
5. > 300 °C
6. 161 to 162 °C

---

I'd be grateful if you could share measured melting point for these entries.

For orientation, consider the following solved cases.
compound | readout.label | observed.measurement
CC(C)c1cccc(C(C)C)c1NC(=O)C(Cc1ccccc1)NC(=O)CCCCl (stereo not given) | melting point | 212 to 215 °C
FC(F)(F)c1[nH]c(-c2ccc(Cl)cc2)cc1-c1csc(Br)c1 | melting point | 112 to 115 °C
O=C(OC1CCC1)c1ccc(O)c(C(=O)O)c1 | melting point | 200 °C

Please give melting point for each item listed below.
1. Cn1nc(-c2ccc(NN=C(CCC(=O)O)c3ccc(O)cc3O)cc2)ccc1=O
2. CC(C)c1nc(COCc2ccccc2)n(CC2CC2)c1Sc1cc(Cl)cc(Cl)c1
3. O=C(CCCC(=O)c1ccccc1)NC1CCN(Cc2ccc(Cl)c(Cl)c2)CC1
4. NC(=S)c1sc(N2CCCC2)nc1N
5. Nc1ccc(F)cc1Nc1ccc(F)cc1

1: 138 to 141 °C; 2: 120 to 121 °C; 3: 130 °C; 4: 264 to 265 °C; 5: 83 to 84 °C

Please give melting point for each item listed below.
1. CC(=O)NCc1ccc(C(C)N2CCN(c3ccc(F)cc3)CC2)cc1 (stereo not given)
2. N#CCc1ccc(C(=O)c2ccc(Cl)cc2)[nH]1
3. CN(Cc1ccccc1)C1CCN(c2c(F)cc([N+](=O)[O-])c(F)c2CCl)C1 (stereo not given)

1: 128 to 130 °C; 2: 203 to 205 °C; 3: 94 to 98 °C

Please give melting point for each item listed below.
1. O=C1CCCN1c1ccc(N2C[C@H](CO)OC2=O)cc1
2. O=C(O)Cc1c(-c2ccccc2)c2cc3c(cc2oc1=O)CCC3
3. OCCOc1cccc2cccnc12

1: 148 °C; 2: 216 to 218 °C; 3: 82 to 84 °C

Please give melting point for each item listed below.
1. [N-]=[N+]=NCC(=O)Nc1ccc(S(=O)(=O)c2ccc(F)cc2)cc1
2. COCN1NC(=O)N(C)C1c1ccccc1-c1ccc(CBr)cc1 (stereo not given)
3. CCCc1nc2c(N)nc3ccccc3c2n1CCCC1(O)CCCCC1
4. Cc1ccc(S(=O)(=O)C2(CC#Cc3ccc(Cl)cc3)SC(=O)N(C(c3ccccc3)(c3ccccc3)c3ccccc3)C2=O)cc1 (stereo not given)
5. CCc1cc(O)n2ccnc2n1
6. CNCC1Cc2cc(F)cc(-c3c(Cl)cccc3Cl)c2O1 (stereo not given)

1: 181 to 184 °C; 2: 137 to 138 °C; 3: 200 to 202 °C; 4: 221 to 223 °C; 5: 93 to 94 °C; 6: 140 to 142 °C

---

I'd be grateful if you could share measured melting point for these entries.

compound | observed.measurement
O=C(CS(=O)Cc1ccc(F)cc1)NO (stereo unspecified) | 176 to 177 °C
CC(=O)Nc1ccc(CC[C@](O)(CC(=O)O)C(C)C)cc1 | 119 to 120 °C
CC12CC(N3CCC(O)CC3)C(O)CC1CCC1C2CCC2(C)C(O)C(N3CCC4(CC3)OCCO4)CC12 (stereo unspecified) | 199 to 201 °C
CC1(C)CCC(=O)N(C2c3cc4nonc4cc3OC(C)(C)C2O)C1 (stereo unspecified) | 136 to 137 °C
O=C1NCCC1Cc1ccc(Cl)nc1 (stereo unspecified) | 117 to 118 °C

Please give melting point for each item listed below.
1. CC(C)NC1=NS(=O)(=O)c2ccc(S(=O)(=O)c3ccccc3)cc2N1
2. CCCCCCCCCCCCCCOCC(CI)(CI)COCCCCCCCCCCCCCC
3. CC(C)SC(=O)Cc1cc(Oc2ccc(C(F)(F)F)cc2Cl)ccc1[N+](=O)[O-]
4. CCOc1cc(Oc2ccc(S(C)(=O)=O)nc2)cc2cc(C3=NCC(CC(=O)NC)S3)[nH]c12 (stereo unspecified)
5. COC(=O)c1cc2c(cc1N)OCCO2

178 to 180 °C
27 to 28 °C
102 to 104 °C
224 to 225 °C
73 to 77 °C

Please give melting point for each item listed below.
1. O=[N+]([O-])c1ccc(CN2CCNS2(=O)=O)cc1
2. CCOC(=O)c1nc(NC)sc1-c1ccncc1
3. c1ccc(CCn2ncc3c2ncn2nc(-c4ccco4)nc32)cc1

115 to 117 °C
136 to 138 °C
174 to 175 °C

Please give melting point for each item listed below.
1. O=C(CNc1ccc2[nH]ncc2c1)N1CCC(Cc2ccccc2)CC1
2. CON=C(C(=O)O)c1nc(NC=O)sc1Br
3. CCOC(=O)C1=C(N)N=C(OCC)C(C(=O)OCC)C1c1cc([N+](=O)[O-])ccc1Cl (stereo unspecified)

42 to 47 °C
165 to 167 °C
136 to 137 °C
